B1: TMEM106C (parent)
chain: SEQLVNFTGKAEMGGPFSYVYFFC

variants of: B1; test: protein stability index of a GFP-peptide fusion (GPS, HEK-293T) (PSI 1-6); higher = more stable; settings: c terminus: a fixed tail appended;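 further: lentivirally expressed fusions sorted by FACS into six bins by GFP to DsRed ratio, PSI derived from sequencing read proportions per bin multiplied by bin number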
protein stability index values, listed per item
Readout Name: protein stability index

Residues	Reading
SEQLVWFTGKAEMGGPFSYVYFFC [N6W]	2.96
SEQLVNFTGKYEMGGPFSYVYFFC [A11Y]	2.47
SEQLVNITGKAEMGGPFSYVYFFC [F7I]	2.32
SEQLVNFTGKAEMGGPFNYVYFFC [S18N]	3
SEQLVNFTGKAEMWGPFSYVYFFC [G14W]	3.4
SEQLMNFTGKAEMGGPFSYVYFFC [V5M]	2.83
SEQLVCFTGKAEMGGPFSYVYFFC [N6C]	3.24
SEQCVNFTGKAEMGGPFSYVYFFC [L4C]	1.94
SESLVNFTGKAEMGGPFSYVYFFC [Q3S]	2.73
SEQLVNFTGKAEMGGPFSYVYFGC [F23G]	3.03
SEQLVNFTGKAEMGGDFSYVYFFC [P16D]	3.16
SEQLVNFTGKAEMGGPFSYVYFFG [C24G]	2.53
SEQLVNFTGKAGMGGPFSYVYFFC [E12G]	2.96
SMQLVNFTGKAEMGGPFSYVYFFC [E2M]	3.48
SEQLVNFTGKAEMMGPFSYVYFFC [G14M]	2.79
